Would you kindly list Relative late peak area (centered, scaled, averaged over 5, 10 and 15 min) for each of these proteins?
ASSAYED_SYSTEM: T1, IFF05588
T1 chain: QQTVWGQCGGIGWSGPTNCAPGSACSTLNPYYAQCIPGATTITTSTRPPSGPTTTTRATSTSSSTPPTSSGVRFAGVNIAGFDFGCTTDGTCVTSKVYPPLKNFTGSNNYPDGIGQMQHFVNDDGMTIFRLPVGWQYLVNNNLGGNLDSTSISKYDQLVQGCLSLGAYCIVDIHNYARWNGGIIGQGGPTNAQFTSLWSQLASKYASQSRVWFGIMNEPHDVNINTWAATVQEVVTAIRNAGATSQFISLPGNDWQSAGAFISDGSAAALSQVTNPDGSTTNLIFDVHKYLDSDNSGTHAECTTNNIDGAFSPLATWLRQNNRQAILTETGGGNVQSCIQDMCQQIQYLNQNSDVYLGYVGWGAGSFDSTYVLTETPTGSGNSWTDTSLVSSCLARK
Numbers only.

# PROTEIN, OBS_VALUE
records = [
    ("IFF21378 (protein) LDKPALTPDLDYLLDGNTANLPQNGGAHWGKWEDGLMPEDCKSIAEGQDLNPADFEVYDVFYDDCQDAWSFCRHKDSPEDLETLVNTFGRVPVRMRSWVRHVLSIPGNNWAFNSNGNIALSGTTTHNLDVCLHETGHSLDLLGAYVDGALSSTQEWEDAYNKDSAVPDNYARTNQVENVAQNTVVGIYDKVVPGGFPGVQSESQKIENQYKLLQDKAGEQILPGGTCDRHLQNSATVSIKSSSKRENKVVKAREAHDSALKGTYTNIVKEFTPFNTKDFHEEH", -0.6),
]

Exam item: Sample IFF21334 (protein) ILDKPVIQPNFPGNGLASLGQGLMDNLSPTHSTWDDWGAGWIPQDCKSLVEGAGFSASDVIPFNIHYDDCAQTWTFCRHKDSPLSEITILDIFGRLPVRMRSFVRHLVFIPGNKSAGSSGDNVLMVGAVDVTVFAHEIGHSLDSHAFDPSYGVPFSTGNVWISNYNLDSAVTDPYAQTSQQENFAQETVVSLYDKVVPGGIGTIQPNWQAIYHQYATLEGYIGDVIIPGGTCTHRLTDSPPVQMSSSSKLRRALGPKPHVALSPEVEEIEAIPMKSSITMTSFDAAGKPNGTYVINL — what was its Relative late peak area (centered, scaled, averaged over 5, 10 and 15 min)?
Marked response: 1.38
